- assay target: T1, LAG-3-hFc protein (human LAG-3 extracellular region with hFc tag) (human, UniProt P18627 23-450)
- T1 construct: also called hLAG-3-hFc; LAG-3 protein; not shown: human IgG Fc fragment (hFc) of the pCpC vector
- T1 sequence: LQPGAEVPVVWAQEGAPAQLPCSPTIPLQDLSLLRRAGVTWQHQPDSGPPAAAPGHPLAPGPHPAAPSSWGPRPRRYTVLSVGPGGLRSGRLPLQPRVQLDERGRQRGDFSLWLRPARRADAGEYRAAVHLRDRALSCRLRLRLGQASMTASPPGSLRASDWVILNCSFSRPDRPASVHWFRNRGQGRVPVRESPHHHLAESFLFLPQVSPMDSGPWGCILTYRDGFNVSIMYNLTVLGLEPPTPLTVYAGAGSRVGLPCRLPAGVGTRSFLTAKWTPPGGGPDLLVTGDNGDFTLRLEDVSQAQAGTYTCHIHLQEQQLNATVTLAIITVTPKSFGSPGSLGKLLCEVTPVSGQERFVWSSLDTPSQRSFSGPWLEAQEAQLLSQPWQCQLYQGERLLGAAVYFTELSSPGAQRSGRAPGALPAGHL
- assay explanation: FACS, inhibition of LAG-3-hFc binding to MHC II on Raji cells, antibody 0.000 nM
Assign Inhibition rate (%) to each entry below.

response.value for 405B8H3 mouse-human chimeric antibody (antibody, V domains shown, also called mAb103-405B8H3) VH: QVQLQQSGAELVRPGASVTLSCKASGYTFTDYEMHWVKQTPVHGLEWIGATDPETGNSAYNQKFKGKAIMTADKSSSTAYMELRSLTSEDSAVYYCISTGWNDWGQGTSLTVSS VL: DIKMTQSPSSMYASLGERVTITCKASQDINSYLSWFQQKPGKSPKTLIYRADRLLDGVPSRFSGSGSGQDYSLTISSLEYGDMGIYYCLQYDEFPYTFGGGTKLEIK (field: Inhibition rate (%)) = -15.6%

response.value for 409D4E10 mouse-human chimeric antibody (antibody, V domains shown, also called mAb112-409D4E10) VH: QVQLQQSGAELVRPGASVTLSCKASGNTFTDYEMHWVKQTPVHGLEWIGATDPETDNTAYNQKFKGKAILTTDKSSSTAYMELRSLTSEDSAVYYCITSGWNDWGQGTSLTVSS VL: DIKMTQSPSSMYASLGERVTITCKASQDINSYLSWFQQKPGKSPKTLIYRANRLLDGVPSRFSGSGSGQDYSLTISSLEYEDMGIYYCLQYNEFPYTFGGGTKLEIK (field: Inhibition rate (%)) = -1.7%

response.value for 105F1E10 mouse-human chimeric antibody (antibody, V domains shown, also called mAb009-105F1E10) VH: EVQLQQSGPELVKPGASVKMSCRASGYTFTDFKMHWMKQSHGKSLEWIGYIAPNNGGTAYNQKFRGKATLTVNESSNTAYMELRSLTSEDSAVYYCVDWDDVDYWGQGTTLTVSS VL: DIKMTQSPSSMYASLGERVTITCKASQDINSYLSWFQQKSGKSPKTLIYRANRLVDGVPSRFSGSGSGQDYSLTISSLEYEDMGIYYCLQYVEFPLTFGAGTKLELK (field: Inhibition rate (%)) = -32.3%
